method summary: Cell Viability - LYMP2-010 (AID 981);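 note: cells exposed to compound for 24 hours at 37 °C; nearly all actives have a fitted effect of over 55% in size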
study conditions: LYMP2-010 lymphoblastoid cell viability, qHTS; series mostly up to 92.2 µM
Inconclusive results are not listed. Active and inactive are the calls of the source. Calls come from the whole dose curve; as a rule, active = well fitted cell-killing curve with a large enough effect; inconclusive = small, poorly fitted or top-dose-only effect; inactive = flat fitted curve, though single readings scatter.
value kind: outcome

Example results:
1) NC(=Nc1ccccc1)Nc1ccccc1
inactive
2) CCCCOCCOCCOCc1cc2c(cc1CCC)OCO2
inactive
3) O=c1[nH]c(=O)n([C@H]2C[C@H](O)[C@@H](CO)O2)cc1Br
inactive
4) NC(=O)N1c2ccccc2C=Cc2ccccc21
inactive
5) CCCCNC(=O)NS(=O)(=O)c1ccc(C)cc1
inactive

Then this compound:
Entry COc1cc(Cc2cnc(N)nc2N)cc(OC)c1OC — recorded outcome = inactive
